MEASUREMENT KIND: IC50

Query `Nc1ncnc2c1c(-c1ccc(Cl)cc1)nn2-c1cccc(-c2cnnn2CCCCCC(=O)NO)c1` on UniProt:Q9UKV0; IC50 returned: 28 µM

---

Can you tell me pKi for the items I'm about to list?
ASSAYED TARGET: Histone deacetylase 1 (Homo sapiens)
Sequence (Q13547 whole entry): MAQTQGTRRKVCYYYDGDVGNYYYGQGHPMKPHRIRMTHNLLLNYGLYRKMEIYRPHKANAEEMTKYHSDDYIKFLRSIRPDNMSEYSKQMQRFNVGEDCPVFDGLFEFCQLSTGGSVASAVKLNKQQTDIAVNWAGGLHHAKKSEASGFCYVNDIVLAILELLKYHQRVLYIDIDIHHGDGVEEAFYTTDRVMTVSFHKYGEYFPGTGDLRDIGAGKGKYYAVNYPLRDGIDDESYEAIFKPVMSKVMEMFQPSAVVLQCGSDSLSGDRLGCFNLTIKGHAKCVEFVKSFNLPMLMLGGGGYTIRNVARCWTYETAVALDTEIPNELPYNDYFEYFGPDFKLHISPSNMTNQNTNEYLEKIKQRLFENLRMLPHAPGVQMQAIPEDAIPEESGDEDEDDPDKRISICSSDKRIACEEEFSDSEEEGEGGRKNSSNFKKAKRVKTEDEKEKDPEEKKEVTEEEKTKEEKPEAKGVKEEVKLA
PROTOCOL TEXT: Inhibition of HDAC1 (unknown origin) by Fluor de Lys based assay
A value of pKi is the negative decimal logarithm of a concentration given in moles per litre.

So, `Nc1ncnc2c1c(-c1ccc(Cl)cc1)nn2-c1cccc(-c2cnnn2CCCCCC(=O)NO)c1` ? Its pKi was 9.59

So, `O=C(CCCCCn1nncc1-c1ccccc1)NO` ? Its pKi was 7.35

So, `Nc1ncnc2c1c(-c1ccc(Cl)cc1)nn2-c1cccc(-c2cn(CCCCCC(=O)NO)nn2)c1` ? Its pKi was 9.21

---

Can you tell me Ki for the items I'm about to list?
ASSAYED TARGET: Proto-oncogene tyrosine-protein kinase Src (Homo sapiens)
Sequence (P12931 2-536 limits assumed): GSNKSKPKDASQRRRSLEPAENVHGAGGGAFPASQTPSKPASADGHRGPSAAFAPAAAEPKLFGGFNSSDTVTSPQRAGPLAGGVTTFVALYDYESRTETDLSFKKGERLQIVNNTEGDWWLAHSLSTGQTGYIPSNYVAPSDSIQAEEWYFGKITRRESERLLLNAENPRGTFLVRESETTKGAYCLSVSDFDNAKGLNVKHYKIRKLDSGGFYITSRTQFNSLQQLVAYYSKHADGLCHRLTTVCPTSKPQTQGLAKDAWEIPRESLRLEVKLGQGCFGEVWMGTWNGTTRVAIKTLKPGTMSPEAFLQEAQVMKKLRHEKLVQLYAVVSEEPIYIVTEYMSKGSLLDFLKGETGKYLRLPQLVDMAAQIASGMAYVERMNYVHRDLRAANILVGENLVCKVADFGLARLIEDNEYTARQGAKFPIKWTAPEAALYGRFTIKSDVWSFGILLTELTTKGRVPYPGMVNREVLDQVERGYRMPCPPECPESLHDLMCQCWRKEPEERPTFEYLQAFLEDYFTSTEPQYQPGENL
PROTOCOL TEXT: Inhibition of c-Src (unknown origin) by fluorescence assay
Please give a number only; it is taken to be in nM.

So, `Nc1ncnc2c1c(-c1ccc(Cl)cc1)nn2-c1cccc(-c2cn(CCCCCC(=O)NO)nn2)c1` ? Its Ki was 371

So, `Nc1ncnc2c1c(-c1ccc(Cl)cc1)nn2-c1ccccc1` ? Its Ki was 605

So, `Nc1ncnc2c1c(-c1ccc(Cl)cc1)nn2-c1cccc(-c2cnnn2CCCCCC(=O)NO)c1` ? Its Ki was 138

---

ASSAYED TARGET: Polyamine deacetylase HDAC10 (Homo sapiens)
Sequence (Q969S8 whole entry): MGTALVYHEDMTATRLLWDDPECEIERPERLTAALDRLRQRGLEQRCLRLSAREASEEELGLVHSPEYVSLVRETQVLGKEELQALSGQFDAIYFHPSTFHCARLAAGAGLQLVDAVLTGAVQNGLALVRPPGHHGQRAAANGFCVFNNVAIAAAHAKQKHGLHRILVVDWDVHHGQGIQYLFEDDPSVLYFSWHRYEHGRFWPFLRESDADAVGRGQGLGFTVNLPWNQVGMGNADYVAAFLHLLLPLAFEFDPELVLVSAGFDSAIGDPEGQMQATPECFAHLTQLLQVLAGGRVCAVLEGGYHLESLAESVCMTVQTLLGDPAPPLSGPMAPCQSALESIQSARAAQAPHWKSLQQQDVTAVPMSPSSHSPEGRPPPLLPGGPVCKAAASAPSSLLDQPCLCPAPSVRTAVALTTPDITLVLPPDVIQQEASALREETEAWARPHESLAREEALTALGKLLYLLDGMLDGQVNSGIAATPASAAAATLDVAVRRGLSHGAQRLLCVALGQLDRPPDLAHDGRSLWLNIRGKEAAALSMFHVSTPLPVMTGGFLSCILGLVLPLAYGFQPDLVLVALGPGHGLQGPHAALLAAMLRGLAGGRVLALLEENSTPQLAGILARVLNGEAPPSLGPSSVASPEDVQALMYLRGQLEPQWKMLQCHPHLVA
MEASUREMENT KIND: pIC50
A value of pIC50 is the negative decimal logarithm of a concentration given in moles per litre.

So, `Nc1ncnc2c1c(-c1ccc(Cl)cc1)nn2-c1cccc(-c2cnnn2CCCCCC(=O)NO)c1` ? Its pIC50 was 7.29
